Study System: Prostaglandin D2 receptor 2 (Homo sapiens)
Sequence (Q9Y5Y4 whole entry): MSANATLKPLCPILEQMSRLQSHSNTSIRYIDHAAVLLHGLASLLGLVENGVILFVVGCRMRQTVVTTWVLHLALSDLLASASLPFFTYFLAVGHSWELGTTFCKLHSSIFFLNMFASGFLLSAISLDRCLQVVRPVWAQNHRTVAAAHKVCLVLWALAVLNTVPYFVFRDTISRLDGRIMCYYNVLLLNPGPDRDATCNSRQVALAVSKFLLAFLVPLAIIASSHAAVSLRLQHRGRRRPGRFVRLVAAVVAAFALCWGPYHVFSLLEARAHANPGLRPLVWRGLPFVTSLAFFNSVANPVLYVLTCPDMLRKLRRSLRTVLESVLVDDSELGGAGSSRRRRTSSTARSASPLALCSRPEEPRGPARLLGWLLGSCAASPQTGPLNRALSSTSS
Experimental Details: Displacement of [3H]PGD2 from human DP2 receptor expressed in HEK293-EBNA cells by scintillation counting
pKi: −log10 of the molar value.
Collected pKi values appear next to each entry.

>>> print(df.to_string())
                                  structure  recorded_measurement
0  Cc1sc(C)c(C(=O)N[C@@H](C)c2ccc(C(=O)O)cc2)c1Cc1ccc(C(F)(F)F)cc1                < 5.26
1  Cc1sc(C)c(C(=O)N[C@@H](C)c2ccc(C(=O)O)cc2)c1Cc1ccc(Cl)cc1                < 5.67
2  C[C@@H](NC(=O)c1c(Cl)sc(Cl)c1Cc1cccc(Cl)c1)c1ccc(C(=O)O)cc1                < 6.65
3  C[C@H](NC(=O)c1cscc1Cc1cccc(Cl)c1)c1ccc(C(=O)O)cc1                < 5.14
4  Cc1sc(C)c(C(=O)NC2(c3ccc(C(=O)O)cc3)CC2)c1Cc1ccc(C(F)(F)F)cc1                < 4.68

State the recorded pKi for this entry: `O=C(O)c1ccc(CNC(=O)c2c(Cl)sc(Cl)c2Cc2cccc(Cl)c2)cc1` < 6.20

What would you report for `Cc1sc(C)c(C(=O)NC2(c3ccc(C(=O)O)cc3)CC2)c1Cc1cccc(C(F)(F)F)c1` ? < 5.30
